Hello, the source for this data is paper PMC2990756, in case you need it.

# MEASURED TARGET: JMJD2E (Homo sapiens)
# Sequence (B2RXH2 1-337): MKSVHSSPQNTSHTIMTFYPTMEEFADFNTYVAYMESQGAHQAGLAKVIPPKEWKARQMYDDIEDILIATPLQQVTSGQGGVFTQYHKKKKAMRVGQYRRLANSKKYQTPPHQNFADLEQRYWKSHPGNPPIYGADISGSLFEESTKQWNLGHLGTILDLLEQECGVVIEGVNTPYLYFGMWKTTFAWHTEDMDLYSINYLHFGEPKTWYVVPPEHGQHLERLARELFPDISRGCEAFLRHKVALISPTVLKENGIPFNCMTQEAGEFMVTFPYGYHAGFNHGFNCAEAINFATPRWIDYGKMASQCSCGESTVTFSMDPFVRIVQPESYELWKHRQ
# RUN DESCRIPTION: JMJD2E FDH-coupled assay under low and high iron conditions (iron chelation profile)
# Type: biochemical
# Design: The catalytic domain of human JMJD2E (residues 1–337); His6 (N); made in house; host or cells: E. coli
# TEST SETTINGS: Table S1; high iron, head says 20 µM FAS; unit not in table, from Figure 2; read-out: qHTS Data: jmjd2e fas20um IC50
pIC50: −log10 of the molar value.
In this section, each of the molecules is paired with its reported pIC50.
VALUE KIND: pIC50

CN(C)[C@H]1C(=O)C(C(=O)NCN[C@@H](CCCCN)C(=O)O)=C(O)[C@]2(O)C(=O)C3=C(O)c4c(O)cccc4[C@@](C)(O)[C@H]3C[C@@H]12 :: 4.80
Cl.NC(CO)C(=O)NNCc1ccc(O)c(O)c1O (stereo not shown) :: 5.40
CN[C@@H](C)[C@H](O)c1ccccc1.CN[C@@H](C)[C@H](O)c1ccccc1.O=S(=O)(O)O :: 5.10
CCOc1c(Cl)cc(CNc2ccc(N3CCCC3)cc2)cc1OC :: 4.70
